Molecular target: HCV NS3 helicase NS3h_1b(con1) (Hepatitis C virus genotype 1b, UniProt Q9WMX2)
Construct: truncated C-terminally His-tagged NS3 proteins lacking the N-terminal protease, called NS3h; His-tag (C); made in house
Sequence (Q9WMX2 1192-1657): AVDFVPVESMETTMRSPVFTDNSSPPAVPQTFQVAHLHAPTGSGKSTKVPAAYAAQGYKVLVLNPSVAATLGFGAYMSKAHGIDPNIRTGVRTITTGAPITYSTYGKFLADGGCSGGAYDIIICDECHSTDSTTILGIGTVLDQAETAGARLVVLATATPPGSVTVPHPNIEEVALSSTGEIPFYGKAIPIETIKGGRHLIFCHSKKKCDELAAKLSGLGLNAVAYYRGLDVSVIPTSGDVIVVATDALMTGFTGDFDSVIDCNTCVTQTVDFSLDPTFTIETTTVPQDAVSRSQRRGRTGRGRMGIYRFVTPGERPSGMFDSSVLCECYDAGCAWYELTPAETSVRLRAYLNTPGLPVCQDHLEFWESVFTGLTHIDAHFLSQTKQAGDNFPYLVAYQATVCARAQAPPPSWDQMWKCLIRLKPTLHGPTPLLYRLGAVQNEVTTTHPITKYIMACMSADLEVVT
Test: MBHA screen of NCI mechanistic set library at 20 μM (percent inhibition, compound interference)
Format: biochemical
Details: compounds at 20 μM, MBHA with DNA substrate; calculated from Equation 1
QUANTITY_NAME: Inh. (%) (Inhibition)

For orientation, consider the following solved cases.
[[record]]
compound = "Cl.O=C1c2cccc(NCCCNCCO)c2C(=O)c2cccc(NCCCNCCO)c21 [Compound 363998]"
assay_target = "HCV NS3 helicase NS3h_1b(con1) (Hepatitis C virus genotype 1b, UniProt Q9WMX2)"
obs_value = 138.7

[[record]]
compound = "O=[N+]([O-])c1ccc(N=Nc2c(O)[nH]c3ccccc23)c([N+](=O)[O-])c1 [Compound 4810]"
assay_target = "HCV NS3 helicase NS3h_1b(con1) (Hepatitis C virus genotype 1b, UniProt Q9WMX2)"
obs_value = "−15.4"


(I) Cc1[nH]c(=O)[nH]c(=O)c1/C=C/C(=O)NC(CO)CC(C)C (centres unmarked) [Compound 224117]
(II) COc1nc(N)nc2nc[nH]c12 [Compound 37364]
Could you check which of I and II has a smaller value for Inh. (%) (Inhibition)? Respond using the label that marks the chosen record. I
(I: −2.8%, II: 16.5%)

---

Molecular target: HCV NS3 helicase NS3h_1b(con1) (Hepatitis C virus genotype 1b)
Construct: truncated C-terminally His-tagged NS3 proteins lacking the N-terminal protease, called NS3h; His-tag (C); made in house
Assay: MBHA screen of NCI mechanistic set library at 20 μM (percent inhibition, compound interference)
Assay type: biochemical
Details: compounds at 20 μM, MBHA with DNA substrate; assay interference calculated with Equation 2
QUANTITY_NAME: Int.* (Ratio) (Interference)

[[record]]
compound = "C=C1C(=O)O[C@@H]2C[C@@H](C)[C@@H]3C=CC(=O)[C@@]3(C)[C@@H](O)[C@H]12"
quantity_name = "Int.* (Ratio) (Interference)"
obs_value = 1.20

[[record]]
compound = "N#CC(c1ccccc1)N(CCCCCCN(C(=O)c1ccccc1)C(C#N)c1ccccc1)C(=O)c1ccccc1 (centres unmarked)"
quantity_name = "Int.* (Ratio) (Interference)"
obs_value = 0.98

[[record]]
compound = "Cc1ccc(NC(=O)c2cc3ccccc3c(N=Nc3ccccc3O)c2O)c(C)c1"
quantity_name = "Int.* (Ratio) (Interference)"
obs_value = 0.97

[[record]]
compound = "Nc1nncs1"
quantity_name = "Int.* (Ratio) (Interference)"
obs_value = 1.07

[[record]]
compound = "COc1cccc(/C=N\\NC(=O)C(C)SC(C)C(=O)N/N=C/c2cccc(OC)c2)c1 (centres unmarked)"
quantity_name = "Int.* (Ratio) (Interference)"
obs_value = 1.12

[[record]]
compound = "Cc1cc(=O)[nH]c(NN2C(Cl)C(=O)C2c2cccc([N+](=O)[O-])c2)n1 (centres unmarked)"
quantity_name = "Int.* (Ratio) (Interference)"
obs_value = 0.88

[[record]]
compound = "CCCCCCCCCCCCCCCCOP(=O)([O-])OCC[N+](C)(C)C"
quantity_name = "Int.* (Ratio) (Interference)"
obs_value = 0.89

[[record]]
compound = "Nc1ncnc2c1ncn2C1OC(CO)C(O)C1O (centres unmarked) [Compound 404241]"
quantity_name = "Int.* (Ratio) (Interference)"
obs_value = 1.06


Origin of the recorded values: patent US9464064B2
